Target: T1, STEAP2/1 chimeric construct
T1 construct: Expressed on engineered PC3 human prostate cancer cells; also called PC3_STEAP2/1
Experiment: FACS titration on PC3 cells expressing the STEAP2/1 chimera
Measured property: EC50

[[record]]
binder = "BSSTEAP2/CD3-004 (bispecific antibody, IgG4, V domains shown) VH 1: QVQLVESGGGVVQPGRSLRLSCVASGFTISSYGMNWVRQAPGKGLEWVAVISYDGGNKYSVDSVKGRFTISRDNSKNTLYLQMNSLRAEDSAVYYCARGRYFDLWGRGTLVTVSS VH 2: EVQLVESGGGLVQPGRSLRLSCAASGFTFADYTMHWVRQGPGTGLEWVSDIGWSGGSLGYADSVKGRFTISRDNAKNSLYLEMNNLRPEDTALYYCVKDKSGYGKFQYGLDVWGQGTTVTVSS VL: DIQMTQSPSTLSASVGDRVTITCRASQSISSWLAWYQQKPGRAPNLLISKASSLKSGVPSRFSGSGSGTEFTLTVSSLQPDDFATYYCQQYYSYSYTFGQGTKLEIK"
measured_property = "EC50"
endpoint_result = "79.1 nM"

[[record]]
binder = "BSSTEAP2/CD3-001 (bispecific antibody, IgG4, V domains shown) VH 1: QVQLQQSGPGLVKPSQTLSLTCAISGDSVSSNRAAWNWIRQSPSRGLQWLGRTYYRSKWYNDYAVSLRSRITINPVTSKNQVALHMNSVTPEDTAVYYCARAGIVVVPGPETFYYYDHGLDVWGQGTTVTVSS VH 2: EVQLVESGGGLVQPGRSLRLSCAASGFTFDDYSMHWVRQAPGKGLEWVSGISWNSGSKGYADSVKGRFTISRDNAKNSLYLQMNSLRAEDTALYYCAKYGSGYGKFYHYGLDVWGQGTTVTVSS VL: DIQMTQSPSSLSASVGDRVTITCRASQSIRSYLNWYQQKPGKAPELLIHAASSLQSGVPSRFSGSGSGTDFTLTISSLQPEDFASYYCQQSYSAPPITFGQGTRLEIK"
measured_property = "EC50"
endpoint_result = "3.44 nM"

[[record]]
binder = "BSSTEAP2/CD3-007 (bispecific antibody, V domains shown) VH 1: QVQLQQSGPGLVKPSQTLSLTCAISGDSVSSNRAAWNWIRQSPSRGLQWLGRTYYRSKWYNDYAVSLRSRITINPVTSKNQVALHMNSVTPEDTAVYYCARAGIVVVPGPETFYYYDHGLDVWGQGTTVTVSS VH 2: EVQLVESGGGLVQPGRSLRLSCAASGFTFADYTMHWVRQAPGKGLEWVSDISWNSGSIAYADSVKGRFTISRDNAKNSLYLQMNSLRTEDTAFYYCAKDSRGYGHYKYLGLDVWGQGTTVTVSS VL: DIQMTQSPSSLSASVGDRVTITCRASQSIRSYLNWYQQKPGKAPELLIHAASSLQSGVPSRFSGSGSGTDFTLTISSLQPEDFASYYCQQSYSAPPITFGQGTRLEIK"
measured_property = "EC50"
endpoint_result = "5.37 nM"

[[record]]
binder = "BSSTEAP2/CD3-005 (bispecific antibody, IgG4, V domains shown) VH 1: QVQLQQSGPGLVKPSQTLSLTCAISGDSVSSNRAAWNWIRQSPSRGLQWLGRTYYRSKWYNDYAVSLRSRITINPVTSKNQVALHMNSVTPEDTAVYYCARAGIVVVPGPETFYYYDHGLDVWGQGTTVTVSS VH 2: QVQLVESGGGLVHPGRSLRLSCAASGFKFDDYTMHWVRQAPGKGLEWVSDISWNSGSKGYADSVKGRFTISRDNAKDSLYLQMDSLRAADTAFYYCAKDKSGYGHFYYYAMDVWGQGTTVTVSS VL: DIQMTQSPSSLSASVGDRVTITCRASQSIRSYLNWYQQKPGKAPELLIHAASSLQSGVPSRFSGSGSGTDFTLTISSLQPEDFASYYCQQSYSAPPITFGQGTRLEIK"
measured_property = "EC50"
endpoint_result = "31.8 nM"

[[record]]
binder = "BSSTEAP2/CD3-009 (bispecific antibody, IgG4, V domains shown) VH 1: QVQLQQSGPGLVKPSQTLSLTCVISGDSVSTNSAAWNWIRQSPSRGLEWLGRTYYRSKWYNDYAVSVRSRITINPVTSKNQVALHLNSVTPEDTAVYYCARAGIVVVPGPETYYYYYHGLDVWGQGTTVTVSS VH 2: QVQLVESGGGLVHPGRSLRLSCAASGFKFDDYTMHWVRQAPGKGLEWVSDISWNSGSKGYADSVKGRFTISRDNAKDSLYLQMDSLRAADTAFYYCAKDKSGYGHFYYYAMDVWGQGTTVTVSS VL: DIQMTQSPSSLSASVGDRVTITCRASQNIRSYLNWYQQKPGKAPKLLIHVASSLQSGVPSRFSGSGSGTDFTLTISSLQPEDFATYYCQQSYSTPPITFGHGTRLEIK"
measured_property = "EC50"
endpoint_result = "42.1 nM"

